From: ChEMBL document CHEMBL6087416

# Tested on: Human immunodeficiency virus 1
# assay.procedure: microbe, parasite or virus in culture
# condition: Human immunodeficiency virus 1, IIIB, MT4, 120 h
# Description: Antiviral activity against wild type HIV-1 IIIB infected in human MT4 cells assessed as protection against virus-induced cytopathic effect incubated for 5 days by MTT assay
pEC50: −log10 of the molar value.
Label t when pEC50 >= 8; otherwise f.

>>> label("Cc1cc(/C=C/C#N)cc(C)c1Oc1ccnc(Nc2ccc3c(c2)C(=O)NCC3)n1")
"t"
>>> label("Cc1cc(/C=C/C#N)cc(C)c1Oc1ccnc(Nc2ccc(N3CCN(S(C)(=O)=O)CC3)c(C#N)c2)n1")
"t"
>>> label("Cc1cc(/C=C/C#N)cc(C)c1Oc1ccnc(Nc2ccc3c(c2)COC3)n1")
"t"
>>> label("COP(=O)(OC)N1CCc2ccc(Nc3nccc(Oc4c(C)cc(/C=C/C#N)cc4C)n3)cc2C1")
"f"
>>> label("Cc1cn([C@H]2C[C@H](N=[N+]=[N-])[C@@H](CO)O2)c(=O)[nH]c1=O")
"f"
>>> label("Cc1cc(/C=C/C#N)cc(C)c1Oc1ccnc(Nc2ccc3c(c2)CN(CC#N)CC3)n1")
"f"
>>> label("Cc1cc(/C=C/C#N)cc(C)c1Oc1ccnc(Nc2ccc3scnc3c2)n1")
"t"
